Target: Tiam2 PDZ domain (Mus musculus, UniProt Q6ZPF3)
Sequence (Q6ZPF3 908-997 limits assumed): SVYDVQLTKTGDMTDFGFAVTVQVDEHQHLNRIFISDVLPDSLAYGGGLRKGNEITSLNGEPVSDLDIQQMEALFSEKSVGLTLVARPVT
Peptide text beside a SMILES is read from it. * marks the point of attachment. Dansyl = CN(C)c1cccc2c(S(=O)(=O)*)cccc12
measurement-kind: Kd (µM)
Lab book: enter the figure in µM, no units written.

Some entries whose results are on file:
C[C@H](NC(=O)[C@H](Cc1ccc(O)cc1)NC(=O)[C@H](Cc1ccc(O)cc1)NC(=O)[C@H](CCC(=O)O)NC(=O)[C@H](CCCCN)NC(=O)[C@H](CCCNC(=N)N)NC(=O)[C@H](CO)NC(=O)[C@H](CO)NS(=O)(=O)c1cccc2c(N(C)C)cccc12)C(=O)O [Model, reference compound] (Dansyl-SSRKEYYA-OH) = 24.1
CN(C)c1cccc2c(S(=O)(=O)N[C@@H](CCC(=O)O)C(=O)N[C@@H](CC(N)=O)C(=O)N[C@@H](CCC(N)=O)C(=O)N[C@@H](CCCCN)C(=O)N[C@@H](CCC(=O)O)C(=O)N[C@@H](Cc3ccc(O)cc3)C(=O)N[C@@H](Cc3ccccc3)C(=O)N[C@@H](Cc3ccccc3)C(=O)O)cccc12 [Caspr4] (Dansyl-ENQKEYFF-OH) = 3.4
C[C@H](NC(=O)[C@H](Cc1c[nH]c2ccccc12)NC(=O)[C@H](Cc1ccc(O)cc1)NC(=O)[C@H](CCCCN)NC(=O)[C@H](CCC(=O)O)NC(=O)[C@H](C)NC(=O)[C@H](C)NC(=O)[C@H](Cc1ccc(O)cc1)NS(=O)(=O)c1cccc2c(N(C)C)cccc12)C(=O)O [Tiam1 peptide 2 (Group I)] (Dansyl-YAAEKYWA-OH) = 10.9
C[C@H](NC(=O)[C@H](CCCNC(=N)N)NC(=O)[C@H](Cc1ccc(O)cc1)NC(=O)[C@H](CCCNC(=N)N)NC(=O)[C@H](Cc1ccc(O)cc1)NC(=O)[C@H](C)NC(=O)[C@H](C)NC(=O)[C@H](Cc1ccc(O)cc1)NS(=O)(=O)c1cccc2c(N(C)C)cccc12)C(=O)O [Tiam1 peptide 1 (Group I)] (Dansyl-YAAYRYRA-OH) = 22.5
CC(C)[C@H](NC(=O)[C@H](Cc1ccc(O)cc1)NC(=O)[C@@H](NC(=O)[C@H](CCCNC(=N)N)NC(=O)[C@H](CCCCN)NC(=O)[C@H](C)NC(=O)[C@H](C)NC(=O)[C@H](Cc1ccc(O)cc1)NS(=O)(=O)c1cccc2c(N(C)C)cccc12)[C@@H](C)O)C(=O)O [Tiam2 peptide 1 (Group I)] (Dansyl-YAAKRTYV-OH) = 77.6

Exercise: Which value of Kd has been reported for C[C@H](NC(=O)[C@H](C)NC(=O)[C@H](Cc1ccc(O)cc1)NS(=O)(=O)c1cccc2c(N(C)C)cccc12)C(=O)NCC(=O)N[C@@H](CCCNC(=N)N)C(=O)N[C@@H](CCCCN)C(=O)N[C@@H](Cc1c[nH]cn1)C(=O)N[C@@H](Cc1ccccc1)C(=O)O [Tiam2 peptide 2 (Group II)] (Dansyl-YAAGRKHF-OH) in the records?
Solution: 9.9

Exercise: Which value of Kd has been reported for CC(C)[C@H](NC(=O)[C@H](Cc1ccc(O)cc1)NC(=O)[C@H](Cc1ccc(O)cc1)NC(=O)[C@H](CCC(=O)O)NC(=O)[C@H](CCCCN)NC(=O)[C@H](CC(=O)O)NC(=O)[C@H](CCCCN)NC(=O)[C@H](CC(N)=O)NS(=O)(=O)c1cccc2c(N(C)C)cccc12)C(=O)O [Neurexin1] (Dansyl-NKDKEYYV-OH) in the records?
Solution: 5
